Ref: patent US7875647B2

The following compounds are shown together with reported pIC50 values.
- tested system: Cannabinoid-1 receptor (CB1R) (Rattus norvegicus, UniProt P20272)
- Construct: The tissue obtained from the brain of SD rats was homogenized; from tissue; host or cells: brain of SD rats (membrane pellet of the homogenate)
- Sequence (P20272 whole entry): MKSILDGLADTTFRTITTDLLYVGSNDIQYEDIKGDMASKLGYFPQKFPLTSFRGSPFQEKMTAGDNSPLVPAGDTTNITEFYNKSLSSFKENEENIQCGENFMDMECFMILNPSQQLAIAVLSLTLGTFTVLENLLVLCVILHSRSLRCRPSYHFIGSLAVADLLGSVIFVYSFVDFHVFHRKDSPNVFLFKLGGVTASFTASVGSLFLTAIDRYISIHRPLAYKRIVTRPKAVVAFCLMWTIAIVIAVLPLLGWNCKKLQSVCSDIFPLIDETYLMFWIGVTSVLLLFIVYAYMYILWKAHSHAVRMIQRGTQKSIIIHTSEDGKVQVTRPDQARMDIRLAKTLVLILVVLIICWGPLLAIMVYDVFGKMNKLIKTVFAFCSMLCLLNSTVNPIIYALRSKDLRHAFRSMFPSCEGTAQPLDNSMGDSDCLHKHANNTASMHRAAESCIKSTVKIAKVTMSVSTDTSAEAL
- test details: Cannabinoid-1 receptor (CB1R) binding affinity assay ([3H]CP-55940, rat CB-1 receptor binding protocol)
- measurement setup: brain tissue of SD rats, [3H]CP-55940, 30° C. 60 min; read-out: IC50
pIC50: −log10 of the molar value.
reported property: pIC50

> print(dat)
                                   compound                             tested.system  reported.property  assay.value
1  CCCCC(C)(C)c1nnc(-c2nn(-c3ccccc3Cl)c(-c3ccc(Cl)cc3)c2C)s1 [Example 415]  Cannabinoid-1 receptor (CB1R) (Rattus norvegicus, UniProt P20272)              pIC50         8.10
2  Cc1c(-c2nnc(C3(C(F)(F)F)CC3)s2)nn(-c2ccc(Cl)cc2Cl)c1-c1ccc(Cl)cc1 [Example 462]  Cannabinoid-1 receptor (CB1R) (Rattus norvegicus, UniProt P20272)              pIC50         7.44
3  CCc1c(-c2nnc(C3(c4ccc(Cl)cc4)CC3)s2)nn(-c2ccccc2Cl)c1-c1ccc(Br)cc1 [Example 464]  Cannabinoid-1 receptor (CB1R) (Rattus norvegicus, UniProt P20272)              pIC50         8.36
4  CCc1c(-c2nnc(C3(c4ccc(OC)cc4)CC3)s2)nn(-c2ccc(Cl)cc2Cl)c1-c1ccc(Cl)cc1 [Example 481]  Cannabinoid-1 receptor (CB1R) (Rattus norvegicus, UniProt P20272)              pIC50         8.12
5  Cc1c(-c2nnc(C3CC=CCC3)s2)nn(-c2ccc(Cl)cc2Cl)c1-c1ccc(Cl)cc1 (stereo not shown) [Example 383]  Cannabinoid-1 receptor (CB1R) (Rattus norvegicus, UniProt P20272)              pIC50         7.07
6  Cc1c(-c2nnc(C3(c4ccc(Cl)cc4)CCC3)s2)nn(-c2ccc(Cl)cc2Cl)c1-c1ccc(Cl)cc1 [Example 431]  Cannabinoid-1 receptor (CB1R) (Rattus norvegicus, UniProt P20272)              pIC50         8.12
7  Cc1c(-c2ncc(CC(C)C)s2)nn(-c2ccc(Cl)cc2Cl)c1-c1ccc(Cl)cc1 [Example 646]  Cannabinoid-1 receptor (CB1R) (Rattus norvegicus, UniProt P20272)              pIC50         6.95
